tested on: U2OS; experiment: Incucyte cell viability with U2OS; type: toxicity, cell-based; conditions: human, 12 h, 10 µM, compound concentration 10 uM, replicate number 1, timepoint 12 hours; note: filed as whole numbers so only -1 and 0 and 1 occur
Observed property: Growth Rate

Form field: reported Growth Rate of `CN(C)C(=O)c1ccc(-c2cc(C(=O)N[C@@H]3CCc4ccccc43)no2)cc1O` 0

Field entry: O=C(NCCN1CCOCC1)c1ccc2c(c1)C(=O)c1ccc(Nc3ccc(F)c(NC(=O)c4ccccc4)c3)cc1CC2 [FS-694] 1

How about CN(c1ccnc(CNc2nc(Nc3ccc4c(c3)CC(=O)N4)ncc2C(F)(F)F)n1)S(C)(=O)=O [PF-00911705] ? 0

Can you check CN(C)c1ncnc(-c2ccc3nc(Nc4cc(CN5CCN(C(=O)CC(F)(F)F)CC5)ccn4)[nH]c3c2)c1Cl [BAY-440] next? 0

One more compound: c1cn2cc(-c3ccc4cn[nH]c4c3)nc(Nc3ccc(N4CCOCC4)cc3)c2n1 [ENTOSPLETINIB] 1

Same question for `CN(C)S(=O)(=O)c1ccc(NC(=S)N2CCC(C(O)(c3ccccc3)c3ccccc3)CC2)cc1` please. 0

Same question, `Cl.Cl.c1ccc([C@@H]2C[C@H]2NC2CCNCC2)cc1` this time 1

Again, but for `CCC(=O)Nc1cccc(Oc2nc(Nc3ccc(N4CCN(C)CC4)cc3OC)ncc2Cl)c1` 0

###

tested on: Fibroblast; test: Multiplex assay against human fibroblast; assay type: toxicity, cell-based; conditions: 12 h, 10 µM, compound concentration 10 uM, replicate 1
I'd appreciate it if you could supply Population Hoechst High Intensity Objects (%) values for the items below.
# unit: % | format: bare number

Form field: Population Hoechst High Intensity Objects (%) recorded for `Cn1cc(-c2[nH]c3cc(NC(=O)[C@H](N)C4CCCCC4)cc4c3c2C=NNC4=O)cn1` with Fibroblast (enter value) 20

Try this molecule next: `CNc1nc(NCc2ccc(NS(C)(=O)=O)cc2Cl)cc(-c2ccccn2)n1` 17

Follow-up item: `Cc1[nH]c(/C=C2\C(=O)Nc3ccc(S(=O)(=O)N(C)c4cccc(Cl)c4)cc32)c(C)c1C(=O)N1CCN(C)CC1` 5

Try this molecule next: `Cc1csc2c(N[C@@H](C)CN3CCN(S(=O)(=O)c4ccc(Cl)c(Cl)c4)CC3)ncnc12` 21

Entry `CN1CCN(CCOc2cc(OC3CCOCC3)c3c(Nc4c(Cl)ccc5c4OCO5)ncnc3c2)CC1` please 13

Proceed to `CC(C)(O)CNc1ncc(-c2ccnc(Nc3ccnc(Cl)c3)n2)c(CC2CC2)n1` 7

Now give it for C=CC(=O)Nc1cc2c(Nc3ccc(F)c(Cl)c3)ncnc2cc1OCCCN1CCOCC1.Cl.Cl [CANERTINIB DIHYDROCHLORIDE] too. 13

Same lookup for `COc1cc(-n2cnc3cc(-c4ccc(Cl)cc4)sc3c2=O)ccc1OCCN1CCCC1` , please. 14

###

Give Growth Rate for every item shown.
system: U2OS; assay: Incucyte cell viability with U2OS; format: toxicity, cell-based; conditions: human, 24 h, 10 µM, compound concentration 10 uM, replicate number 1, timepoint 24 hours; note: filed as whole numbers so only -1 and 0 and 1 occur
Where a SMILES comes first, the peptide text is derived from it. [ ]: non-standard residue; d: D form. Arg(Me) = CNC(=N)NCCC[C@H](N)C(=O)O; d4Pal = N[C@H](Cc1ccncc1)C(=O)O; azaGly = NNC(=O)O
Please respond with just the number, no unit label.

What reported Growth Rate corresponds to `CN(C)C(=O)c1ccc(-c2cc(C(=O)N[C@@H]3CCc4ccccc43)no2)cc1O` on U2OS? 1

Entry to check: `CC1(C)CCC(C)(C)c2cc(C3(c4ccc(C(=O)O)cc4)OCCO3)ccc21` 1

What about this compound? `C[C@@]1(Cc2ccc(C#N)cc2)C(=O)N(c2cc(Cl)cc(Cl)c2)c2ncc(C(=O)NC3(c4nc(C5CCC5)no4)CC3)n21` 1

Let us now turn to CNC(=N)NCCC[C@H](NC(=O)[C@H](CC(C)C)NC(=O)NNC(=O)[C@H](Cc1ccccc1)NC(=O)[C@H](CO)NC(=O)[C@H](CC(N)=O)NC(=O)[C@@H](Cc1ccncc1)NC(=O)[C@H](N)Cc1ccc(O)cc1)C(=O)N[C@@H](Cc1ccccc1)C(N)=O [KISS1-305] (H-[dY][d4Pal]NSF[azaGly]L[Arg(Me)]F-NH2) 0

What do we get for `Cc1csc2c(N[C@@H](C)CN3CCN(S(=O)(=O)c4ccc(Cl)c(Cl)c4)CC3)ncnc12` ? 0

Note, next up: `CC(C)S(=O)(=O)c1ccc2nccc(Nc3ccc4scnc4c3)c2c1` 1

Would you mind doing `CCC(=O)N1CCOc2c(cc(-c3ccc(OC)c(OC)c3)cc2OC[C@H]2CCCN(C)C2)C1` as well? 1

Consider next the compound `CNC(=NCCSCc1csc(N=C(N)N)n1)NC#N` in the same way. 1

# iterate: `CC(=O)Nc1c(C(C)=O)c(=O)n(C)c2nc(-c3ccc(Cl)cc3Cl)c(-c3ccc(Cl)cc3)cc12` 0

Please answer likewise for `CN([C@@H]1CCc2c(CC(=O)O)c3ccccc3n2C1)S(=O)(=O)c1ccc(F)cc1` 0

Can you handle `CNCc1ccccc1-c1csc([C@H](C)Nc2nc(C)nc3cc(OC)c(OC)cc23)c1` next? 0

What do you get for `CSc1ccc(C(=O)N[C@@H]2CCCC[C@@H]2NC(=O)CNC(=O)c2cc(C(F)(F)F)ccc2NC(=O)NC(C)C)cc1` ? 0

And what about the compound `Nc1nc(NCc2ccccc2)nc(-c2ccccc2CO)n1` ? 1

Note, next up: CN(C)[C@@H]1CCN(c2cc(-c3ccccc3)nc3ccnn23)C1 [(R)-ZINC-3573] 1

Input `O=C(NCCCC1CCCCC1)c1ccc(CNC(=O)c2cnn(-c3ccccc3)c2C(F)(F)F)cc1` 1

// query: `c1cn2cc(-c3ccc4cn[nH]c4c3)nc(Nc3ccc(N4CCOCC4)cc3)c2n1` 0

###

Please respond with reported Growth Rate for every item in the list.
test system: U2OS; test: Incucyte cell viability with U2OS; assay type: toxicity, cell-based; settings: human, 12 h, 10 µM, compound concentration 10 uM, replicate number 2, timepoint 12 hours; note: filed as whole numbers so only -1 and 0 and 1 occur
The answer should be a number; do not append a unit.

Can you look up the measured Growth Rate of COc1cccc(OC)c1-c1cc(C(=O)NC2(C(=O)O)C3CC4CC(C3)CC2C4)nn1-c1ccc(C(=O)N(C)CCCN(C)C)cc1C(C)C (stereo not given) for me? 0

Let us now turn to `Br.Br.N=C(N)SCCc1c[nH]cn1` 0

Entry to check: `CN(C)C(=O)c1ccc(-c2cc(C(=O)N[C@@H]3CCc4ccccc43)no2)cc1O` 1

Try `C[C@@H](c1cccc(CN)c1)n1cc(Cl)cc(C(N)=O)c1=N.Cl` next. 0

And for `COc1ccc(Oc2cc(NCCC(F)(F)F)c3ncc(-c4ccc(C(=O)NC5CC5)c(C)c4)n3n2)c(F)c1F` ? 1

###

test system: HEK-293T; assay: Multiplex assay against HEK293T; assay type: toxicity, cell-based; details: human, 12 h, 10 µM, compound concentration 10 uM, replicate 2
Field: Population Membrane Permeable-Phenotype (%). Provide a value for each of the compounds that follow.
The answer is to be given in %; state only the numeric part.

Can you look up Population Membrane Permeable-Phenotype (%) on HEK-293T for CN(C)CC#Cc1ccc(OCCCc2sc(N3CCc4cccc(C(=O)Nc5nc6ccccc6s5)c4C3)nc2C(=O)O)c(F)c1 [A-1155463] ? 10

Please do the same for Cl.N#Cc1ccc2[nH]cc(CCCCN3CCN(c4ccc5oc(C(N)=O)cc5c4)CC3)c2c1 [VILAZODONE HYDROCHLORIDE] as well. 23

Please give the result for `Cc1cc(C)cc(-c2cnc3cc(Cl)c(-c4cccc(O)c4)cc3c2OCCCN)c1` too. 0

`OC1(c2ccc(Cl)cc2)CCN(Cc2c[nH]c3ccccc23)CC1` , same question. 17

`C=CC(=O)Nc1cccc(C(=O)Nc2ccc(Nc3cc(-c4[nH]c(SC)nc4C)ccn3)cc2)c1` , same question. 19

Note, next up: `CC(C)(O)CNc1ncc(-c2ccnc(Nc3ccnc(Cl)c3)n2)c(CC2CC2)n1` 28

Param item: CC(C)NCC(O)COc1ccc(CCOCC2CC2)cc1.Cl (stereo not drawn) [BETAXOLOL HYDROCHLORIDE] 6

One more compound: Cc1c(-c2ccc(O)cc2)n(Cc2ccc(OCCN3CCCCCC3)cc2)c2ccc(O)cc12 [BAZEDOXIFENE] 10

###

system: Fibroblast; assay: Multiplex assay against human fibroblast; assay type: toxicity, cell-based; details: 24 h, 10 µM, compound concentration 10 uM, replicate 2
Observed property: Population Apoptotic (%)
Numeric answer only, unit % assumed.

Under Fibroblast: Population Apoptotic (%) value of CC(C)NCC(O)COc1ccc(CCOCC2CC2)cc1.Cl (centres undefined) [BETAXOLOL HYDROCHLORIDE] ? 40

Can you handle Cc1nc(Nc2n[nH]c3c2CN(C(=O)N[C@H](CN(C)C)c2ccccc2)C3(C)C)c2sccc2n1 [PF-03758309] next? 100

Next compound: COc1cccc([C@@H](C)NCCCc2ccccc2Cl)c1.Cl [TECALCET HYDROCHLORIDE] 35

Param item: Cl.N#Cc1ccc2[nH]cc(CCCCN3CCN(c4ccc5oc(C(N)=O)cc5c4)CC3)c2c1 [VILAZODONE HYDROCHLORIDE] 75
